- targetOfAssay: T1, Human Galectin-3 protein (Acro Biosystems, GA3-H5129) (human, UniProt P17931 2-250)
- T1 construct: Bought protein; also called hGal3; Gal3; not shown: linker-spaced 6-histidine tag
- T1 sequence (P17931 2-250): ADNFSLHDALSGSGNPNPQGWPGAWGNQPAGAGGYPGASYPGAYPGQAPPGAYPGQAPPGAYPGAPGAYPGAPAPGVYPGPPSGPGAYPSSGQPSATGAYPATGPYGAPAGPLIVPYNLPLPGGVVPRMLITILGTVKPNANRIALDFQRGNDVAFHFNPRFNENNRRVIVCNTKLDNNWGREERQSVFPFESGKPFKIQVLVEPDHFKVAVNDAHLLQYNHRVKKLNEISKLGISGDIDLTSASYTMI
- testProtocol: ELISA, hGal3 coated, antibody 3 ug/mL, competitor hTIM3
readoutKind: GAL3-TIM3 Blocking @ 3 ug/mL (%)
Note: unit % is implicit; provide only the numeric part.

q: Query (binder): 23H9.2E4 (antibody, V domains shown, murine antibody) VH: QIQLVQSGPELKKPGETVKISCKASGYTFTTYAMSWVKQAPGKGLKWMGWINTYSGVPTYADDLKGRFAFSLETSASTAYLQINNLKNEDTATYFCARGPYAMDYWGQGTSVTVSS VL: DIQMTQTTSSLSASLGDRVTISCSASQGINNYLNWYQQKPDGTVKLLIYYASSLHSGVPSRFSGSGSGTDYSLTISNLEPEDIATYYCQQYSQVPYTFGSGTKLEIK ; field requested: GAL3-TIM3 Blocking @ 3 ug/mL
a: 80

q: Item 4A11.2B5 (antibody, V domains shown, murine antibody; parent of IMT006-1 and IMT006-5) VH: QVQLQQSGPELVKPGASVKISCKASGYSFTNYYIHWVKQRPGQGLEWIGWIYPGSGNTNYNEKFKGKATLTADTSSSTTNMQLSSLTSEDSAVYYCSTAPGGFDVWGSGTTVTVSS VL: DIVMTQAAFSNPVTLGTSASISCRSSKSLLHSDGITYLYWYLQRPGQSPQLLIYRMSNLASGVPDRFSGSGSGTDFTLRISRVEAEDVGVYYCAQMLEFPLTFGAGTKLELK has what recorded GAL3-TIM3 Blocking @ 3 ug/mL?
a: 48
